# Species on record: Rattus norvegicus
# protocol text: DrugMatrix - Regimen: Daily Repeat
# Type: toxicity, organism-based, Sprague-Dawley
# Design: regimen Daily Repeat, gender Male, age 6-8 weeks
# study conditions: in vivo, po, 1500 mg/kg, 120 h, tissue Plasma, route oral GAVAGE, dose level High, time 5 day, vehicle .5 % CMC
recorded metric: LIPASE (u/L)
Write it as a number; the unit u/L goes unstated.

Some solved entries appear below for comparison.
molecule	LIPASE, u/L
C[C@]1(Cn2ccnn2)[C@H](C(=O)O)N2C(=O)C[C@H]2S1(=O)=O	9
CNC(=C[N+](=O)[O-])NCCSCc1ccc(CN(C)C)o1	10
CO[C@H]1/C=C/O[C@@]2(C)Oc3c(C)c(O)c4c(c3C2=O)C2=NC3(CCN(CC(C)C)CC3)NC2=C(NC(=O)/C(C)=C\C=C\[C@H](C)[C@H](O)[C@@H](C)[C@@H](O)[C@@H](C)[C@H](OC(C)=O)[C@@H]1C)C4=O	12.5

input: Using the record for Cc1ccc(S(=O)(=O)NC(=O)NN2CC3CCCC3C2)cc1 (configuration not stated) [GLICLAZIDE] , report its LIPASE.
output: 10

====

# Species on record: Rattus norvegicus
# protocol text: DrugMatrix - Regimen: Daily Repeat
# Format: toxicity, organism-based, Sprague-Dawley
# Parameters: regimen Daily Repeat, gender Male, age 6-8 weeks
# study conditions: in vivo, po, 10 mg/kg, 72 h, tissue Plasma, route oral GAVAGE, dose level Low, time 3 day, […]
BLOOD UREA NITROGEN by entry:
Could you give me the number in mg/dL? Just the number is fine.

Worked examples, 2 molecules total:
> print(dat)
                                   molecule      recorded.metric  quantitative.result
1  COc1ccc2cc([C@H](C)C(=O)O)ccc2c1 [NAPROXEN]  BLOOD UREA NITROGEN                 9.67
2  CCOC(=O)C1=C(C)NC(C)=C(C(=O)OC)C1c1cccc([N+](=O)[O-])c1 (centres undefined) [NITRENDIPINE]  BLOOD UREA NITROGEN                10.33

input: Look up BLOOD UREA NITROGEN: COCCOC(=O)C1=C(C)NC(C)=C(C(=O)OC(C)C)C1c1cccc([N+](=O)[O-])c1 (centres undefined) [NIMODIPINE]
output: 12

input: Thanks! And CC(C)CC(N(C)C)C1(c2ccc(Cl)cc2)CCC1 (centres undefined) [SIBUTRAMINE] ?
output: 12

====

# Organism: Rattus norvegicus
# protocol text: DrugMatrix - Regimen: Daily Repeat
# Format: toxicity, organism-based, Sprague-Dawley
# Design: regimen Daily Repeat, gender Male, age 6-8 weeks
# study conditions: in vivo, po, 0 mg/kg, 72 h, tissue Blood, route oral GAVAGE, dose level Control, time 3 day, […]
The entries below come with measured HEMATOCRIT values attached.
Supply the numeric figure in %, leaving out any unit text.

Some solved cases for reference:
> print(dat)
                                   compound  recorded.metric  reading.unit  quantitative.result
1  O=C(O)Cc1ccccc1Nc1c(Cl)cccc1Cl [DICLOFENAC]       HEMATOCRIT             %                34.07
2        CC(=O)Nc1ccc(O)cc1 [ACETAMINOPHEN]       HEMATOCRIT             %                32.78

input: Entry under review: CCCCCCCCc1ccc(O)cc1 [4-OCTYLPHENOL] . Reported HEMATOCRIT?
output: 36.87
